target: TTR (Homo sapiens (Human), UniProt P02766)
pIC50: −log10 of the molar value.

COMPOUND	pIC50
O=C(O)Cc1ccccc1Nc1c(Cl)cccc1Cl [drawing 78]	5.43
